Cited source: patent US12195427B2

Molecular target: MASP-2 CCP2-SP (Homo sapiens (Human), UniProt O00187)
Sequence (O00187 445-686): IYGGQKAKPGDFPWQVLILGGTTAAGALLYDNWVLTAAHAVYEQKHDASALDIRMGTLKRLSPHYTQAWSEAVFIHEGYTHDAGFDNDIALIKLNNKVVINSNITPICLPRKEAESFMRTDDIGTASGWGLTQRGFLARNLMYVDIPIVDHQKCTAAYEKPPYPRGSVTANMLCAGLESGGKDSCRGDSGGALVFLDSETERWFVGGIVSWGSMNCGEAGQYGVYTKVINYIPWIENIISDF
Sequence (O00187 364-432 partner): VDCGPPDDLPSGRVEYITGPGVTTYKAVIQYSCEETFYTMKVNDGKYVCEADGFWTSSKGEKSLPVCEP
Experiment: MASP-2 co-crystallization, X-ray crystallography and structure analysis (H-bonds, van der Waals contacts)
Settings: Table A2-5: TYR 607 (CE1, CE2, OH), PRO 608 (CD, CG), SER 611 (CA)
Structures can show the parent of a compound that is named as a salt.
Catalogue of van der Waals contact distance, MASP-2 amino acid atom to compound atom readings, one per entry.
PARAMETER MEASURED: van der Waals contact distance, MASP-2 amino acid atom to compound atom

- COMPOUND: "C[C@H](NC(=O)[C@H]1C[C@H](c2ccccc2)CN1)C(=O)NCc1ccc(N)nc1"
  MEAS VALUE: 3.88
- COMPOUND: "C[C@H](NC(=O)C1C[C@@H](c2ccccc2)CCN1)C(=O)NCc1ccc(C(=N)N)cc1 (stereo in doubt)"
  MEAS VALUE: 3.85
- COMPOUND: "N=C(N)c1ccc(CNC(=O)C(CF)NC(=O)[C@H](N)CCc2ccccc2)cc1 (stereo partly drawn) [compound 1050, Dihydrochloride]"
  MEAS VALUE: 3.68
- COMPOUND: "C[C@H](NC(=O)[C@H](N)C1Cc2ccccc2C1)C(=O)NCc1ccc2nc(N)[nH]c2c1"
  MEAS VALUE: 3.89
- COMPOUND: "Cc1cccc([C@H]2CN[C@@H](C(=O)N[C@@H](C)C(=O)NCc3ccc(N)nc3C)C2)c1 [compound 1257, Dihydrochloride]"
  MEAS VALUE: 3.8
- COMPOUND: "C[C@H](NC(=O)[C@H]1C[C@@H](c2ccccc2)CCN1)C(=O)NCc1cnc2[nH]cc(Cl)c2c1"
  MEAS VALUE: 3.73
- COMPOUND: "Cc1nc(N)ccc1CNC(=O)[C@H](C)NC(=O)[C@H]1C[C@@H](c2ccccc2)CCN1 [compound 1253, Dihydrochloride]"
  MEAS VALUE: 3.73
- COMPOUND: "C[C@H](NC(=O)[C@H](N)C1Cc2ccccc2C1)C(=O)NCc1ccc2c(N)nccc2c1 [compound 1088, Dihydrochloride]"
  MEAS VALUE: 3.73
- COMPOUND: "N=C(N)c1ccc(CNC(=O)[C@@H]2CCN2C(=O)[C@H](NCC(=O)O)C2CCCCC2)cc1 [melagatran, reference compound]"
  MEAS VALUE: 3.67

----------
Biological target: MASP-2 CCP2-SP (Homo sapiens (Human))
Assay: MASP-2 co-crystallization, X-ray crystallography and structure analysis (H-bonds, van der Waals contacts)
Conditions: Table A5-2 pharmacophore distance, S3/S4 region
Structures can show the parent of a compound that is named as a salt.
So basically: is d(O2,N2) under 3? Then met. Not under? Then not met.

- COMPOUND: "Cc1nc(N)ccc1CNC(=O)[C@H](C)NC(=O)[C@H]1C[C@@H](c2ccccc2)CCN1CCC(=O)O [compound 1411, Trifluoroacetate salt]"
  LABEL CLASS: "met"
- COMPOUND: "CC(=O)Nc1ccc(CCN[C@H](CCc2ccccc2)C(=O)N[C@@H](C)C(=O)NCc2ccc(N)nc2C)cc1 [compound 1368, Dihydrochloride]"
  LABEL CLASS: "not met"
- COMPOUND: "C[C@H](NC(=O)[C@H]1Cc2c([nH]c3ccccc23)CN1)C(=O)NCc1ccc(C(=N)N)cc1.Cl.Cl [1097_2]"
  LABEL CLASS: "met"
- COMPOUND: "C[C@H](NC(=O)[C@H]1C[C@@H](c2ccccc2)CCN1)C(=O)NCc1cc(Cl)ccc1O.Cl [1078_4]"
  LABEL CLASS: "met"
- COMPOUND: "Cc1cccc([C@H]2CN[C@@H](C(=O)N[C@@H](C)C(=O)NCc3ccc(N)nc3C)C2)c1 [compound 1257, Dihydrochloride]"
  LABEL CLASS: "met"
- COMPOUND: "C[C@H](NC(=O)C1C[C@@H](c2ccccc2)CCN1)C(=O)NCc1ccc(C(=N)N)cc1 (stereo in doubt)"
  LABEL CLASS: "not met"
- COMPOUND: "C[C@H](NC(=O)[C@H](N)CCc1ccccc1)C(=O)NCc1ccc(N)nc1.Cl.Cl [1007_2]"
  LABEL CLASS: "met"
- COMPOUND: "Cc1nc(N)ccc1CNC(=O)[C@H](C)NC(=O)[C@H]1C[C@H](Cc2cccc(Cl)c2)CN1.Cl.Cl [1328_3]"
  LABEL CLASS: "met"
- COMPOUND: "Cc1nc(N)ccc1CNC(=O)[C@H](C)NC(=O)[C@H]1C[C@H](Cc2ccccc2)CN1"
  LABEL CLASS: "met"
- COMPOUND: "C[C@H](NC(=O)[C@H]1C[C@@H](c2ccccc2)CN1)C(=O)NCc1ccc2c(N)nccc2c1.Cl.Cl [1089_A]"
  LABEL CLASS: "met"
- COMPOUND: "Cc1nc(N)ccc1CNC(=O)[C@H](C)NC(=O)[C@H]1C[C@H](Cc2ccccc2Br)CN1.O=C(O)C(F)(F)F.O=C(O)C(F)(F)F [1372_B]"
  LABEL CLASS: "met"
- COMPOUND: "Cc1nc(N)ccc1CNC(=O)C(C)NC(=O)C1CC(c2cccc3ccccc23)CCN1.Cl.Cl (centres unmarked) [1297_6]"
  LABEL CLASS: "met"
- COMPOUND: "C[C@H](NC(=O)[C@H]1C[C@H](Cc2ccccc2)CN1)C(=O)NCc1cnc2[nH]cc(Cl)c2c1"
  LABEL CLASS: "met"

----------
Target: MASP-2 CCP2-SP (Homo sapiens (Human))
Test: MASP-2 co-crystallization, X-ray crystallography and structure analysis (H-bonds, van der Waals contacts)
Conditions: Table A4-1; element C2
Text: This example illustrates the preparation of recombinant MASP-2 protein, based on UniProt O00187, human mannan-binding lectin serine protease 2. Expression constructs for human MASP-2 CCP2-SP and CCP2-SP-6HIS were generated for recombinant expression in E. coli cells. […]
Structures can show the parent of a compound that is named as a salt.
PARAMETER MEASURED: Ligand-pharmacophore element distance, pharmacophore element C2

- COMPOUND: "C[C@H](NC(=O)[C@H](N)CCCc1ccccc1)C(=O)NCc1ccc(C(=N)N)cc1.Cl.Cl [1042_3]"
  MEAS VALUE: 2.05
- COMPOUND: "C[C@H](NC(=O)[C@@H](CCc1ccccc1)NCc1ccc(C(=O)N2CCOCC2)cc1)C(=O)NCc1ccc(C(=N)N)cc1.Cl.Cl"
  MEAS VALUE: 10.14
- COMPOUND: "C[C@H](NC(=O)[C@H](N)CCCc1ccccc1)C(=O)NCc1ccc(C(=N)N)cc1.Cl.Cl [1042_2]"
  MEAS VALUE: 1.33
- COMPOUND: "C[C@H](NC(=O)[C@H](N)CCc1ccccc1)C(=O)NCc1ccc(N)nc1.Cl.Cl [1007_1]"
  MEAS VALUE: 0
- COMPOUND: "CC(NC(=O)C(CCc1ccccc1)NCCCc1ccc(O)cc1)C(=O)NCc1ccc(C(=N)N)cc1.Cl.Cl (stereo not drawn)"
  MEAS VALUE: 0
- COMPOUND: "C[C@H](NC(=O)[C@H]1C[C@@H](c2ccccc2)CCN1)C(=O)NCc1cc(Cl)ccc1O.Cl [1078_6]"
  MEAS VALUE: 1.09
- COMPOUND: "CC(NC(=O)C(CCc1ccccc1)NCc1ccc(C(=O)N2CCOCC2)cc1)C(=O)NCc1ccc(C(=N)N)cc1.Cl.Cl (stereo not drawn)"
  MEAS VALUE: 8.69
- COMPOUND: "Cc1nc(N)ccc1CNC(=O)[C@H](C)NC(=O)[C@H]1C[C@@H](c2cccc3ccccc23)CCN1.Cl.Cl [1297_2]"
  MEAS VALUE: 0.34
- COMPOUND: "Cc1nc(N)ccc1CNC(=O)[C@H](C)NC(=O)c1cc(Cc2ccccc2)n[nH]1"
  MEAS VALUE: 0
- COMPOUND: "Cc1nc(N)ccc1CNC(=O)[C@H](C)NC(=O)[C@H]1C[C@H](Cc2cccc(Cl)c2)CN1.Cl.Cl [1328_1]"
  MEAS VALUE: 0
- COMPOUND: "C[C@H](NC(=O)[C@H]1C[C@@H](c2ccccc2)CCN1)C(=O)NCc1cc(Cl)ccc1O.Cl [1078_2]"
  MEAS VALUE: 0.61
- COMPOUND: "C[C@H](NC(=O)[C@H]1C[C@@H](c2ccccc2)CCN1)C(=O)NCc1cc(Cl)ccc1O.Cl [1078_14]"
  MEAS VALUE: 0.74
- COMPOUND: "Cc1nc(N)ccc1CNC(=O)[C@H](C)NC(=O)[C@H]1C[C@H](Cc2cccc(Cl)c2)CN1.Cl.Cl [1328_3]"
  MEAS VALUE: 0
- COMPOUND: "Cc1nc(N)ccc1CNC(=O)[C@H](C)NC(=O)[C@H]1C[C@H](Cc2ccccc2-c2ccccc2)CN1 [compound 1373, Di-trifluoroacetate salt]"
  MEAS VALUE: 0
- COMPOUND: "C[C@H](NC(=O)[C@H]1C[C@@H](c2ccccc2)CCN1)C(=O)NCc1cc(Cl)ccc1O.Cl [1078_12]"
  MEAS VALUE: 0.4
